- Test system: SR leukemia
- testName: NCI tumour cell line growth inhibition, 48 h
Reported TGI values for the following molecules.

Worked set:
molecule | TGI
N#CC1C(=N)Cc2ccccc2-c2ccccc21 (stereo unspecified) | 20.7 µM
C=CC1OC(CCCOC(=O)C(C)(C)C)O[C@@H]1CC (stereo partly specified) | > 100 µM
Cn1cc2c(n1)c(N/N=C/c1ccccc1)nn1nnnc21 | > 100 µM
C/C(Cl)=N\OC(=O)Nc1ccccc1C(F)(F)F | 44.9 µM
O=C(Nc1cnn2ccc(N3CCC[C@@H]3c3cc(F)ccc3F)nc12)N1CC[C@H](O)C1 | > 100 µM
O=[N+]([O-])c1ccc(NC2OCC(O)C(O)C2O)cc1 (stereo unspecified) | > 100 µM

Given item CC1CCCC(C(O)CC2CC(=O)N(c3ccccc3)C(=O)C2)C1=O (stereo unspecified) , the value recorded as its TGI is > 100 µM

Given item `OCCCSc1ccccc1SCCCO` , the value recorded as its TGI is > 100 µM

Given item `NC(=O)N/N=C(\Cc1nc2ccc(C(=O)c3ccccc3)cc2[nH]c1=O)C(=O)Nc1ccc(Br)cc1` , the value recorded as its TGI is > 100 µM

Given item O=C(O)c1c(CC(Cc2ccc3c(c2)CCCC3)C(=O)O)ccc2c1CCCC2 (stereo unspecified) , the value recorded as its TGI is > 100 µM

Given item `O=C(Oc1ccc([N+](=O)[O-])cc1)N1CCN(Cc2cccc(Oc3ccccc3)c2)CC1` , the value recorded as its TGI is > 100 µM

Given item `CCCCCCCCOc1ccc(/C=N/Nc2cc(C)nc3ccc(Cl)cc23)cc1` , the value recorded as its TGI is 7.12 µM

Given item C=C(C)C1Cc2c(cc(O)c3c(=O)c4ccccc4n(C)c23)O1 (stereo unspecified) , the value recorded as its TGI is > 100 µM

Given item CN1N=C2c3ccccc3CC[C@H]2C1c1ccccc1 (stereo partly specified) , the value recorded as its TGI is > 100 µM

====

- Test system: HT29 colon
- testName: NCI tumour cell line growth inhibition, 48 h
Reported TGI values for the following compounds.

Given item `O=c1cccc(C#Cc2ccccc2)o1` , the value recorded as its TGI is > 100 µM

Given item CC(C)CCCC(C)[C@H]1CC[C@H]2[C@@H]3CC[C@H]4C[C@@H](CCC=C(c5cc(Cl)c(O)c(C(=O)OC(C)(C)C)c5)c5cc(Cl)c(O)c(C(=O)OC(C)(C)C)c5)CC[C@]4(C)[C@H]3CC[C@]12C (stereo not given in full) , the value recorded as its TGI is > 50 µM

Given item `CN(C)c1ccc(/C=C2\CNC/C(=C\c3ccc(N(C)C)cc3)C2=O)cc1` , the value recorded as its TGI is 24.1 µM

Given item `COC(=O)NCCc1[nH]nc2c1C(=O)C=C(OC)C2=O` , the value recorded as its TGI is > 100 µM

Given item CCc1cccc(C(C)C)c1NC(=O)C(=O)C(C(=O)C(=O)OC)c1nc2ccccc2[nH]c1=O (stereo not given) , the value recorded as its TGI is > 100 µM

Given item `Nc1ccn([C@H]2C[C@@H](O)[C@@H](CO)S2)c(=O)n1` , the value recorded as its TGI is > 100 µM

Given item `O=C(Nc1cnn2ccc(N3CCC[C@@H]3c3cc(F)ccc3F)nc12)N1CC[C@H](O)C1` , the value recorded as its TGI is > 100 µM

Given item `c1ccc2nc3[nH]c4ccccc4c3cc2c1` , the value recorded as its TGI is 1.75 µM

Given item `Cc1nc2c(nc1C)-c1c(c3c(n1Cc1ccccc1)C(=O)CCC3)C(=O)C2=O` , the value recorded as its TGI is 23.9 µM

Given item `O=c1ccc2ccccc2o1` , the value recorded as its TGI is > 100 µM
